test name: Oral bioavailability of the compound in dogs
condition context: dog, in vivo
Experimental: The poor water solubility results in poor oral bioavailability in dogs, often below 50%. The log P of the compound of Formula (I) is calculated to be 1.25 (Chem Draw and Insight for Excel). To increase solubilization and promote bioavailability, Applicants have dosed the compound in the amorphous state as part of an amorphous solid dispersion (ASD). […] Therefore, the ASD was manufactured by co-precipitation or cPAD (co-precipitated amorphous dispersion). […]
readout type: bioavailability

COc1cc(Nc2nn([C@H]3COCC[C@@H]3C#N)cc2C(N)=O)cc(F)n1 < 50%

From: patent US12653788B2
